# Tested on: OVCAR-8 ovarian
# Assay Notes: NCI-60 one-dose screen, 48 h (100 = growth as untreated, 0 = no growth, -100 = all killed)
# Experimental Parameters: 10 µM unless noted
This is part of a sample that, as a whole, favours compounds with a hit. Of some 83,000 tested, about 20% had one in any assay.
Please go through the items and note down their growth.
Answers are plain numbers, in %.

Previously resolved entries follow.
- COc1cc2nc3cc([N+](=O)[O-])ccc3c(NCCNCC(C)(C)O)c2cc1OC: -3.94
- O=C1CCc2c(sc3[nH]c(=S)n(Cc4ccc(Cl)cc4)c(=O)c23)C1: 7.83
- COc1cc(CNC(=O)CCCC/C=C/C(C)C)ccc1O: 109

Consider the following items and state reported growth for each.
1. CCC(=C(c1ccc(OCCCN(C)C)cc1)c1ccc(OCCCN(C)C)cc1)c1ccc(Cl)cc1
2. O=C1OCC2=C1C(c1cccc([N+](=O)[O-])c1)c1cc3c(cc1N2CCO)CCC3 (stereo not given)

1. -76.3
2. 5.88
